B1: ISL2 (parent)
chain: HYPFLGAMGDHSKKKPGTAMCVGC

Variants of: B1
Assay: protein stability index of a GFP-peptide fusion (GPS, HEK-293T) (PSI 1-6); higher = more stable;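 note: lentivirally expressed fusions sorted by FACS into six bins by GFP to DsRed ratio, PSI derived from sequencing read proportions per bin multiplied by bin number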
Details: c terminus: a fixed tail appended
So basically: protein stability index at 3 or higher? That is true. Lower than 3? That is false.

Hello, I need to know if `K13T` has measured protein stability index not below 3. Thanks! false

Hello, I need to know if `Y2T` has measured protein stability index not below 3. Thanks! true

Hello, I need to know if `S12K` has measured protein stability index not below 3. Thanks! false

Hello, I need to know if `A7K` has measured protein stability index not below 3. Thanks! false

Hello, I need to know if `G9I` has measured protein stability index not below 3. Thanks! false

Hello, I need to know if `M20F` has measured protein stability index not below 3. Thanks! false

Hello, I need to know if `S12T` has measured protein stability index not below 3. Thanks! false

Hello, I need to know if `K13C` has measured protein stability index not below 3. Thanks! true

Hello, I need to know if `A19S` has measured protein stability index not below 3. Thanks! true

Hello, I need to know if `M8Q` has measured protein stability index not below 3. Thanks! true

Hello, I need to know if `A7R` has measured protein stability index not below 3. Thanks! false

Hello, I need to know if `A19W` has measured protein stability index not below 3. Thanks! false

Hello, I need to know if `H11Q` has measured protein stability index not below 3. Thanks! true

Hello, I need to know if `P3A` has measured protein stability index not below 3. Thanks! false

Hello, I need to know if `Y2I` has measured protein stability index not below 3. Thanks! false

Hello, I need to know if `P16H` has measured protein stability index not below 3. Thanks! false

Hello, I need to know if `M8T` has measured protein stability index not below 3. Thanks! false

Hello, I need to know if `T18K` has measured protein stability index not below 3. Thanks! false

Hello, I need to know if `L5A` has measured protein stability index not below 3. Thanks! true

Hello, I need to know if `V22E` has measured protein stability index not below 3. Thanks! true

Hello, the source for this data is the supplement of paper PMC10567573, in case you need it.
